List of half-life at 200 µM values.
testSystem: UniProtKB P02769
Sequence (P02769 whole entry): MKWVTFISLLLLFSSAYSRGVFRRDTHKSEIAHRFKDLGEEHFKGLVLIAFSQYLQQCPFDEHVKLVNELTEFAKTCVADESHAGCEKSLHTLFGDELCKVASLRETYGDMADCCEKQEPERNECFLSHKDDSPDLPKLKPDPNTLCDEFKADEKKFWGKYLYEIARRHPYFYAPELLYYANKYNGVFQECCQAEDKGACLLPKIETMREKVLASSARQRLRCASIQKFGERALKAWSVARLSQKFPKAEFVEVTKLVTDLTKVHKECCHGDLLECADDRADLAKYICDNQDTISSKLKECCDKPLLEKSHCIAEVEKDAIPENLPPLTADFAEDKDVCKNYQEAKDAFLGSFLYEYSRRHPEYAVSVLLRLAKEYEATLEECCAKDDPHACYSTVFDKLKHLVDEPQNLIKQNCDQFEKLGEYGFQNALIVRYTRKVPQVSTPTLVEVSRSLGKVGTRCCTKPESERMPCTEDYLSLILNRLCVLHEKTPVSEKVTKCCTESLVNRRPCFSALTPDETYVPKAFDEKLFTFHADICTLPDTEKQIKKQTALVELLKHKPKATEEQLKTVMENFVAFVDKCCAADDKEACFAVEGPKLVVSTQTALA
measurementDescription: Half life in 3% bovine serum albumin at 200 uM incubated up to 4 hrs by UHPLC analysis
Type: ADME
cond: cattle, 3% bovine serum albumin solution
propertyName: half-life at 200 µM

INSERT INTO measurements (smilesstr, testsystem, observed) VALUES
  ('C[C@]12C=CC(=O)C=C1CC[C@@H]1[C@@H]2[C@@H](O)C[C@@]2(C)[C@H]1C[C@H]1O[C@@H](C3CCCCC3)O[C@]12C(=O)COC(=O)CN=C=S', 'UniProtKB P02769', '1.4 h'),
  ('CCCCC(=O)O[C@]1(C(=O)COC(=O)CN=C=S)[C@@H](C)C[C@H]2[C@@H]3CCC4=CC(=O)C=C[C@]4(C)[C@@]3(F)[C@@H](O)C[C@@]21C', 'UniProtKB P02769', '1 h');
